experiment: Partition coefficient measured between octanol and 0.05 M NH4PO4 (pH 7.4) using shake-flask method; format: physicochemical; conditions: octanol/0.05 M NH4PO4 buffer
The entries below come with measured logD values attached.

Given the entry O=[N+]([O-])c1nccn1CC(O)CN1C2CCOCC21 (configuration not stated) , report its measured logD. 0.07

For the compound shown here, O=[N+]([O-])c1nccn1CC(O)CNC1CCCC[C@@H]1Br (some centres not stated) , give the reported logD. 1.21

###

experiment: Plating efficiency of drug treated irradiated tumors relative to irradiated only group; type: ADME; also: test concentration or dose not given here
Values of Fold reduction greater than or equal to 6 map to Yes; values below map to No.

Examples with answers:
O=[N+]([O-])c1nccn1CC(O)CNC1CCCC[C@@H]1Br (some centres undefined) = No
O=[N+]([O-])c1nccn1CC(O)CN1C2CCCCCCC21 (centres undefined) = No
O=[N+]([O-])c1nccn1CC(O)CNC1CCC[C@H]1Br (some centres undefined) = No
O=[N+]([O-])c1nccn1CC(O)CN1C2CCOCC21 (centres undefined) = No
O=[N+]([O-])c1nccn1CC(O)CNC1COCC[C@@H]1Br (some centres undefined) = Yes

# bool: Fold reduction of CC1CCCC2C1N2CC(O)Cn1ccnc1[N+](=O)[O-] (centres undefined) >= 6 No

Item O=[N+]([O-])c1nccn1CC(O)CN1C2CCCCC21 (centres undefined) with Fold reduction of 6 or above? No

Check if Fold reduction >= 6 (inclusive). Item: O=[N+]([O-])c1nccn1CC(O)CN1CC1 (centres undefined) Yes
